Test system: Plasmodium berghei
test_description: Screen against P. berghei liver stage (PbLuc), transformed with Luciferase, at 10uM
Type: functional, HepG2
condition_details: tested at 10 uM
The campaign covered roughly 69,000 compounds. About 8,600 (12%) showed an effect of 50% or more. What follows is part of a selection rich in strong results, with near analogues and random picks from the rest.
Recorded INHIBITION determines the group label, using low bin: < 10%; mid bin: ≥ 10% and < 50%; high bin: ≥ 50%

Query: Could you place CC(C)C(O)CNC(=O)Nc1cnn(Cc2ccccc2)c1 (stereo unspecified) in its proper category? Many thanks.
Result: low bin

Query: For the record OC1(CN2CCCCC2)CCN(c2cccc(C(F)(F)F)n2)C1 (stereo unspecified) , report the class its INHIBITION corresponds to.
Result: mid bin

Query: Please classify: `COc1cc(N2CC[C@@H]3O[C@@H](C(=O)NC(C)C)C[C@@H]32)ncn1`
Result: low bin

Query: Pick a category. Item: OC1(CN2CCCCC2)CCN(c2ccc(C(F)(F)F)cn2)C1 (stereo unspecified)
Result: high bin

Query: Using the reported INHIBITION, which band applies to `COc1ccc(-c2n[nH]c(C)c2CC(=O)NCCN2CCOCC2)cc1` ?
Result: mid bin

Query: For `Cc1[nH]nc(-c2ccc(F)cc2)c1CC(=O)NCC1CCOCC1` , which INHIBITION bin applies?
Result: low bin

Query: Category lookup for the compound OC1(CN2CCCCC2)CCN(c2cc(C(F)(F)F)ccn2)C1 (stereo unspecified)
Result: mid bin

Query: For `COc1ccc(-c2cc3cccn(CC(=O)N4CCOCC4)c-3n2)cc1` , which INHIBITION bin applies?
Result: low bin

Query: Category lookup for the compound COc1ccc(-c2n[nH]c(C)c2CC(=O)NCC2CCCO2)cc1 (stereo unspecified)
Result: mid bin

Query: Just checking, what class would you give `COc1ccc(-c2n[nH]c(C)c2CC(=O)NCC2CCOCC2)cc1` here?
Result: high bin

---

System: Plasmodium berghei
test_description: Screen against P. berghei liver stage (PbLuc), transformed with Luciferase, at 10uM
Assay type: functional, HepG2
condition_details: tested at 10 uM
The whole screen tested about 69,000 compounds, of which about 8,600 (12%) showed an effect of 50% or more. Many of the other results were omitted from the sample, so strong results are more common in it than they were.
metric: INHIBITION (%)
Report the figure in % without appending any unit label.

Guide cases for INHIBITION, answers given:
Query: Give the measured INHIBITION of `COc1cccc(CC(=O)N2CCCN(c3ccnc(C)c3)CC2)c1` .
Result: -1.25

Query: Consider the compound shown here: Cc1cc(NC(=O)NCC(O)COc2ccccc2)n(C)n1 (centres undefined) What is its recorded INHIBITION?
Result: 25.365

Query: Requested field: INHIBITION. Item: `Cc1cc(N2CCN(C(=O)Cc3ccc4c(c3)OCO4)CC2)cc(C)n1`
Result: 52.2

More entries:
Query: Quick check: INHIBITION of `COc1ccc2c(ccn2CCC(=O)NCc2ccc(C(=O)O)cc2)c1` ?
Result: 7.83

Query: Could you share which INHIBITION value was measured for `CN(Cc1cc(Br)cn1C)C(=O)Cc1cccc(O)c1` ?
Result: 50.8

Query: Data request, read-out INHIBITION, for `CCNC(=O)[C@@H]1C[C@@H](N)CN1C(=O)C1(c2ccc(OC)cc2)CCCC1`
Result: 9.55

Query: Sample CC1CCCN(c2ccccc2OCC(=O)NC2CC2)C1 (centres undefined) — what was its INHIBITION?
Result: 42.6

Query: Reported INHIBITION for CC(C)CC(=O)N1CC(=O)N(CCc2ccccc2)CC(O)C1 (centres undefined) : what is it?
Result: 0.284

Query: # lookup: INHIBITION of `CNC(=O)[C@@H](c1ccccc1)N1CCC[C@H]1C(=O)NCc1ccccn1`
Result: 34.6

Query: Item Cc1cnn(CC(C)Nc2cnc3ccccc3n2)c1 (centres undefined) has what recorded INHIBITION?
Result: -26.8

Query: Consider the compound shown here: `O=C(Cc1ccc2c(c1)OCO2)N1CCCN(c2ccccc2)CC1` What is its recorded INHIBITION?
Result: 11.8

Query: Name the recorded INHIBITION for `CN(Cc1cc(Br)cn1C)C(=O)Cc1cccnc1` .
Result: -91.4

Query: Recorded INHIBITION of `CCOCCN(CCOCC)c1nc(C)nc2sccc12` , please.
Result: 69.7

Query: Consider the compound shown here: `NC(=O)c1ccc(N2CCCCC2)c(NC(=O)c2cncc(Br)c2)c1` What is its recorded INHIBITION?
Result: 46.8

Query: Given the entry `CCn1cc(NC(=O)c2cccc(OCC(F)(F)F)n2)cn1` , report its measured INHIBITION.
Result: 51.5

Query: What INHIBITION value was documented for this compound, COc1c(CNC(c2ccccc2F)c2nccn2C)c(C)nn1C (centres undefined) ?
Result: 2.95

Query: Any idea what its INHIBITION is? The compound is `O=C(c1ccncc1)N1CCC(Cc2cnc3[nH]ccc3c2)CC1`
Result: 33.7

Query: Tell me the measured INHIBITION of CCNC(=O)COc1ccccc1N1CCCC(C)C1 (centres undefined) , please.
Result: 36.2

Query: INHIBITION for Cc1cc(C2CCCN2C(=O)c2cc3c(s2)CCC3)no1 (centres undefined) ?
Result: 15.3
